experiment: Chemical stability in 50% PBS/50% acetonitrile solution assessed as unchanged parent compound remaining after 48 hrs; type: physicochemical; settings: read-out: Stability
ENDPOINT NAME: remaining at 48 h

If you can, please state the reported remaining at 48 h value of `Cc1ccc(C)c(NC(=O)[C@@H]2CCCN2S(=O)(=O)c2cccc3cccnc23)c1` .
95.4%

---

test system: HEp-2; assay: Cytotoxicity against human Hep2 cells by Cell Titer-Glo assay; assay type: cell-based
ENDPOINT NAME: CC50 (µM)
Numbers only, in µM.

Worked examples follow.
[[record]]
substance_smiles = "Cc1ccc(Cl)cc1NC(=O)[C@@H]1CCCN1S(=O)(=O)c1cccc2cccnc12"
units_text = "µM"
val = 10

[[record]]
substance_smiles = "Cc1cccc(NC(=O)[C@@H]2CCCN2S(=O)(=O)c2cccc3cccnc23)c1"
units_text = "µM"
val = 25.5

[[record]]
substance_smiles = "CC(C)c1ccccc1NC(=O)[C@@H]1CCCN1S(=O)(=O)c1cccc2cccnc12"
units_text = "µM"
val = 29.9

[[record]]
substance_smiles = "COc1ccc(C)c(NC(=O)[C@@H]2CCCN2S(=O)(=O)c2cccc3cccnc23)c1"
units_text = "µM"
val = 44.2


Record lookup: for HEp-2, what CC50 belongs to `O=C(Nc1ccccc1)[C@@H]1CCCN1S(=O)(=O)c1cccc2cccnc12` ?
35.6
